Where do these numbers come from? They come from patent US8822692B2.

Tested on: Ouabain-Hypertensive Rats (OHR)
Procedure Text: Anti-hypertensive effect in ouabain-hypertensive rats (OHR), six week oral treatment
Format: in vivo, rat
Measurement Context: oral gavage 1 μg/kg/day once a day, six weeks, experiment A, vehicle 387
Experimental: Anti-hypertensive property of various derivatives were looked at in vivo in three animal models of hypertension (i.e., mutant α-adducin congenic rats, ouabain-hypertensive rats and Milan hypertensive rats). Hypertension was provoked by subcutaneous ouabain infusion (15 μg/kg/day) in normotensive rats as already described (Ferrari P., et al., J. Pharmacol. Exp. Ther., 1998, 285, 83).
Metric Name: HR (beats/min)
Numbers only, in beats/min.

Take a look at these entries with their results.
CC(N)CCCCC1(C)CCCC2(C)c3ccc(C(C)C)cc3CCC12.O=C(O)/C=C/C(=O)O (centres unmarked) [Example 26] :: 374
CC(C)c1ccc2c(c1)CCC1C(C)(/C=N/O[C@@H]3CCNC3)CCCC21C.O=C(O)/C=C/C(=O)O (some centres unmarked) [Example 4] :: 380
CC(C)c1ccc2c(c1)CCC1C(C)(C=NOC3CCNCC3)CCCC21C.O=C(O)C=CC(=O)O (centres unmarked) [Example 6] :: 392
CC(C)c1ccc2c(c1)CCC1C(C)(/C=C\CCCN)CCCC21C.O=C(O)/C=C/C(=O)O (centres unmarked) [Example 23] :: 370

From here, focus on the item given below.
Record CC(C)c1ccc2c(c1)CCC1C(C)(COCCCN)CCCC21C.O=C(O)/C=C/C(=O)O (centres unmarked) [Example 27] . Reported HR: 390
